Assay: Kinetic solubility of the compound by chemi-luminescent nitrogen detection method
Entries and their log10 solubility kinetic values follow.
log10 solubility kinetic, µg/mL

These recorded examples may help you get a feel for the data.
{"columns": ["chemical_structure", "log10 solubility kinetic"],
 "data": [
  ["CCCc1cc(=O)n2nc(NCC3CCOCC3)c(C#N)c2[nH]1", 2.27],
  ["CC(C)CCc1cc(=O)n2nc(NCc3ccc(Cl)cc3)c(C#N)c2[nH]1", 1.88]
]}

Exercise: For the compound CCCc1cc(=O)n2nc(NCc3ccc(Br)cc3)nc2[nH]1 , what log10 solubility kinetic is on record?
Key: 1.73

Exercise: For the compound CCCCc1cc(=O)n2nc(NCc3c(F)cc(Cl)cc3F)c(C#N)c2[nH]1 , what log10 solubility kinetic is on record?
Key: 2.21

Exercise: For the compound CCCc1cc(=O)n2nc(NCc3ccc(Cl)cc3)nc2[nH]1 , what log10 solubility kinetic is on record?
Key: 1.57

Exercise: For the compound CCCc1cc(=O)n2nc(NCc3ccc(C)cc3)c(C#N)c2[nH]1 , what log10 solubility kinetic is on record?
Key: 1.97

Exercise: For the compound CCCc1cc(=O)n2nc(NCCc3ccc(Cl)cc3)c(C#N)c2[nH]1 , what log10 solubility kinetic is on record?
Key: 2.11

Exercise: For the compound CCCc1cc(=O)n2nc(NCc3ccc(Br)cc3F)c(C#N)c2[nH]1 , what log10 solubility kinetic is on record?
Key: 2.20
